Biological target: UniProt:P23975
Sequence (P23975 whole entry): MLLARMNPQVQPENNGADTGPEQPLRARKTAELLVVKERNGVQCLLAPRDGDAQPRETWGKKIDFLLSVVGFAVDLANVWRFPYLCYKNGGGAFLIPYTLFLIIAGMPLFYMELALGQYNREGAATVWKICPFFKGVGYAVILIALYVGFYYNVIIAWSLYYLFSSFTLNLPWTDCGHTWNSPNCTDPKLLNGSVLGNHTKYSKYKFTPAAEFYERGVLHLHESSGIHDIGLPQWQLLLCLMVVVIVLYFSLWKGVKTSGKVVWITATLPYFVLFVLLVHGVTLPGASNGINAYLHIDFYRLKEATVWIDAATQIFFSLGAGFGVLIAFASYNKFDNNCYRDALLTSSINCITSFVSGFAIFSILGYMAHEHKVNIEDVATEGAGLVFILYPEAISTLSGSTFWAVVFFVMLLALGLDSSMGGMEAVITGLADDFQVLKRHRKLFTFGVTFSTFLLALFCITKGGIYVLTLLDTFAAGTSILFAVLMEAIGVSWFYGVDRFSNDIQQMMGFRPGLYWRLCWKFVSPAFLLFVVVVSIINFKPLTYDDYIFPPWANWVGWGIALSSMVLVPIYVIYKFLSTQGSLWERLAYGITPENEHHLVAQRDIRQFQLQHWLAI
Test: hNET uptake, Protocol B: cell based norepinephrine reuptake assay using recombinant hNET (MDCK-Net6 cells)
Settings: NE uptake (Protocol B) IC50 (nM), MDCK-Net6 cells, 3H-NE 16 nM
Structures can show the parent of a compound that is named as a salt.
Quantity Name: IC50 (nM)

>  <Compound>
CCc1ccc(N2c3ccccc3N(CCCNC)S2(=O)=O)nc1 [Example 29, hydrochloride]

>  <Test Target>
UniProt:P23975

>  <Measured>
434

$$$$
>  <Compound>
Cc1ccc(N2c3ccccc3N(CCCCN)S2(=O)=O)c(F)c1

>  <Test Target>
UniProt:P23975

>  <Measured>
125

$$$$

[I] CNCCCCN1c2ccccc2N(c2ccccc2)S1(=O)=O
[II] CN(C)CCCCN1c2ccccc2N(c2ccc(F)cc2F)S1(=O)=O [Example 120, hydrochloride]
Of the two listed items, which has the higher IC50? First: I Second: II # reply format: chosen label
II
